# target.of.assay: human cathepsin B (Homo sapiens, UniProt P07858)
# Construct: purchased Calbiochem, Darmstadt, Germany
# experiment: Cathepsin B inhibition assay (chromogenic substrate Cbz-Arg-Arg-pNA)
# Format: biochemical
# test.parameters: 20 µM inhibitor, duplicate measurements, product formation after 60 min; read-out: r.a. (%), residual enzymatic activity of cathepsin B
Attribute: remaining activity at 20 µM

{"compound": "COC(=O)C(Cc1ccccc1)NC(=O)C(CC(C)C)NC(=O)Oc1ccc(Cl)cc1 (stereo not shown)", "remaining activity at 20 µM": "97%"}
{"compound": "CC(C)CC(NC(=O)Oc1ccc(NC(=O)C(c2ccccc2)c2ccccc2)c(Cl)c1)C(=O)NC(Cc1ccccc1)C(=O)O (stereo not shown)", "remaining activity at 20 µM": "≤ 2%"}
{"compound": "CC(C)CC(OC(=O)Nc1ccc(Cl)cc1)C(=O)N[C@@H](Cc1ccccc1)C(=O)O (stereo partly shown)", "remaining activity at 20 µM": "91%"}
{"compound": "CC(C)C[C@H](NC(=O)Oc1cccc(Cl)c1)C(=O)N1CCC[C@H]1C(=O)O", "remaining activity at 20 µM": "≤ 2%"}
{"compound": "CC(C)CC(NC(=O)Oc1ccccc1)C(=O)NC(Cc1ccccc1)C(=O)O (stereo not shown)", "remaining activity at 20 µM": "23%"}
{"compound": "CC(C)CC(NC(=O)Oc1ccc(NC(=O)C(c2ccccc2)c2ccccc2)c(Cl)c1)C(=O)N1CCCC1C(=O)O (stereo not shown)", "remaining activity at 20 µM": "≤ 2%"}
{"compound": "O=C(NC(CC1CCCCC1)C(=O)NC(Cc1ccccc1)C(=O)O)Oc1ccc(NC(=O)C(Cc2ccccc2)Cc2ccccc2)c(Cl)c1 (stereo not shown)", "remaining activity at 20 µM": "≤ 2%"}

* * *

Attribute: kinact/KI
# target.of.assay: human cathepsin B (Homo sapiens)
# Construct: purchased Calbiochem, Darmstadt, Germany
# experiment: Cathepsin B inhibition assay (chromogenic substrate Cbz-Arg-Arg-pNA)
# Format: biochemical
# test.parameters: 1 h, pH 6, five inhibitor concentrations, duplicates, 60 min progress curves, 500 µM Cbz-Arg-Arg-pNA, pH 6.0, 37 °C; read-out: k inac/K i ± SE, second-order rate constant of enzyme inactivation, cathepsin B
readout: kinact/KI

{"molecule": "CC(C)CC(NC(=O)Oc1ccc(NC(=O)c2ccc(-c3ccccc3)cc2)c(Cl)c1)C(=O)N1CCCC1C(=O)O (stereo not shown)", "result": "3640 M⁻¹ s⁻¹"}
{"molecule": "O=C(NC(CC1CCCCC1)C(=O)NC(Cc1ccccc1)C(=O)O)Oc1ccc(NC(=O)C(c2ccccc2)c2ccccc2)c(Cl)c1 (stereo not shown)", "result": "> 10000 M⁻¹ s⁻¹"}
{"molecule": "O=C(NC(CC1CCCCC1)C(=O)NC(Cc1ccccc1)C(=O)O)Oc1ccc(Cl)cc1 (stereo not shown)", "result": "2010 M⁻¹ s⁻¹"}
{"molecule": "CC(C)C[C@H](NC(=O)Oc1ccc(Cl)c(NC(=O)Cc2ccccc2)c1)C(=O)N1CCC[C@H]1C(=O)O", "result": "2860 M⁻¹ s⁻¹"}
{"molecule": "CC(C)C[C@H](NC(=O)Oc1ccc(Cl)cc1)C(=O)N1CCC[C@H]1C(=O)O", "result": "711 M⁻¹ s⁻¹"}
{"molecule": "CC(C)CC(CNC(=O)Oc1ccc(Cl)cc1)C(=O)N1CCC[C@@H]1C(=O)O (stereo partly shown)", "result": "30.3 M⁻¹ s⁻¹"}
{"molecule": "CC(C)C[C@H](NC(=O)Oc1ccc(Cl)cc1)C(=O)N[C@@H](Cc1ccccc1)C(=O)O", "result": "745 M⁻¹ s⁻¹"}
